- Experimental target: CLK2 (human) (UniProt P49760)
- Sequence (P49760 whole entry, looked up): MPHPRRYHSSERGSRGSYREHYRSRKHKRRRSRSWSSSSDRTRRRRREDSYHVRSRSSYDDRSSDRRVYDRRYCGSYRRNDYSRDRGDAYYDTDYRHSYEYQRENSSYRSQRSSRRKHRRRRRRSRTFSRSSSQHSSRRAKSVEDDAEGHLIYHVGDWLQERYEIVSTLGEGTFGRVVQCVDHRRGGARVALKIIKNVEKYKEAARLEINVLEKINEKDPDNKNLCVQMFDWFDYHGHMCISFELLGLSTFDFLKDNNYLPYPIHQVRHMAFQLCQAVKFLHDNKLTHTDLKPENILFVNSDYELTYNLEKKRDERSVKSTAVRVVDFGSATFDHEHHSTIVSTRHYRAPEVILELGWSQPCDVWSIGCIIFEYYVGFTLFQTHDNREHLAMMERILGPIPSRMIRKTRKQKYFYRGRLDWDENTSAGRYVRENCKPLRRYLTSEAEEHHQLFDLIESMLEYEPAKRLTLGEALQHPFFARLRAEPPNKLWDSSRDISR
- Assay summary: radiometric filter-binding kinase assay
- Test conditions: compound 10.0 µM
Attribute measured: residual activity (%)

{"Molecule": "CC1=C(CO)C(=O)O[C@@H]([C@@H](C)[C@H]2CC[C@H]3[C@@H]4C[C@H]5O[C@]56[C@@H](O)C=CC(=O)[C@]6(C)C4CC[C@]23C)C1 (stereo partly drawn)", "Endpoint unit": "%", "Numeric result": 94}
{"Molecule": "COc1cc(C(=O)N2CCOCC2)c(F)cc1Nc1ncc(C(F)(F)F)c(NC2CC2)n1", "Endpoint unit": "%", "Numeric result": 5}
{"Molecule": "Cc1ccc2c(c1)C(=O)[C@@]1(O)CCN(c3ccccc3)C1=N2", "Endpoint unit": "%", "Numeric result": 87}
{"Molecule": "NC(=O)c1c(NC(=O)C2CC2)sc2c1CCCC2", "Endpoint unit": "%", "Numeric result": 49}
{"Molecule": "FC(F)(F)c1ccc(-c2ccc(Oc3cncc4sc(-c5nn[nH]n5)cc34)cc2)cc1", "Endpoint unit": "%", "Numeric result": 14}
{"Molecule": "O=S(=O)(c1ccc(F)c2nonc12)N1CCN(c2ncc(C(F)(F)F)cc2Cl)CC1", "Endpoint unit": "%", "Numeric result": 95}
{"Molecule": "N#Cc1c(O)c2c(-c3ccc(-c4ccccc4O)cc3)csc2[nH]c1=O", "Endpoint unit": "%", "Numeric result": 81}
{"Molecule": "Oc1ccc(/C=C/c2cc(O)cc(O)c2)cc1", "Endpoint unit": "%", "Numeric result": 55}
{"Molecule": "CCn1c(-c2nonc2N)nc2cncc(CNC3CCNCC3)c21", "Endpoint unit": "%", "Numeric result": 22}
{"Molecule": "Cc1nc(-c2ccc(OCC(C)C)c(C#N)c2)sc1C(=O)O", "Endpoint unit": "%", "Numeric result": 77}
{"Molecule": "N#Cc1c(C2CCNCC2)cc(-c2c(O)cccc2OCC2CC2)nc1N", "Endpoint unit": "%", "Numeric result": 7}
{"Molecule": "Cc1ccc(=O)n(-c2ccccc2)c1", "Endpoint unit": "%", "Numeric result": 112}
{"Molecule": "CC(C)(C#N)c1ccc(N2C(=O)OCc3cnc4ccc(-c5cnc6ccccc6c5)cc4c32)cc1", "Endpoint unit": "%", "Numeric result": 91}
